System: IGROV1 complex spheroids (HUVEC, MSC), viability % test/control
EXPERIMENT NOTES: Anticancer human tumor IGROV1 cell line growth inhibition [GQUAD];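 also: spheroids exposed to compounds for 7 days before readout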;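 as to viability, T/C: 100% = DMSO vehicle control viability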
CONDITION DESCRIPTION: second compound 0.1 µM; first compound 0.316 µM; stronger effect = lower value
Please go through the items and note down their viability, T/C.
Give bare numbers, in %.

Please give the measured viability, T/C for this compound: CC1COCCN1c1cc(C2(O)CC3CCC(C2)O3)c2cnn(-c3ccn[nH]3)c2n1 (stereo not given) + CN(C)c1ccc(Nc2c3ccc(NC(=O)CCN4CCCC4)cc3nc3cc(NC(=O)CCN4CCCC4)ccc23)cc1 9.08

Moving on to CC(C)n1c(=O)n(C)c2cnc3cc(F)c(-c4ccc(OCCCN5CCCCC5)nc4)cc3c21 + Cc1cnc(CNC(=O)c2c(=O)c3ccc(N4CCCN(C)CC4)nc3n3c2sc2ccccc23)cn1 12.4

Moving on to CC1COCCN1c1cc(-c2ccnn2C)c2ccnc(-c3ccn[nH]3)c2n1 (stereo not given) + Cc1[nH]c2ccc(F)cc2c1-c1nc2c3cccnc3c3ncccc3c2[nH]1 12.7

Moving on to C=CC(=O)N1CCN(c2nc(=O)n(-c3c(C)ccnc3C(C)C)c3nc(-c4c(O)cccc4F)c(F)cc23)C(C)C1 (stereo not given) + Cc1cnc(CNC(=O)c2c(=O)c3ccc(N4CCCN(C)CC4)nc3n3c2sc2ccccc23)cn1 51.4

Proceeding to the next compound to report its viability, T/C.
Please give the measured viability, T/C for this compound: O=C(c1cc(Cc2n[nH]c(=O)c3ccccc23)ccc1F)N1CCN(C(=O)C2CC2)CC1 + Cc1cnc(CNC(=O)c2c(=O)c3ccc(N4CCCN(C)CC4)nc3n3c2sc2ccccc23)cn1 34

====

System: IGROV1 complex spheroids (HUVEC, MSC), viability % test/control
EXPERIMENT NOTES: Anticancer human tumor IGROV1 cell line growth inhibition [GQUAD]; active means viability on the fitted dose curve at most 10% of control; inactive means the rest;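 also: spheroids exposed to compounds for 7 days before readout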
CONDITION DESCRIPTION: second compound 10 µM; first compound 0.1 µM
Outcome field: choose from T for active, F for inactive

Which outcome was entered for the molecule C#Cc1c(F)ccc2cc(O)cc(-c3ncc4c(N5CC6CCC(C5)N6)nc(OCC56CCCN5CC(F)C6)nc4c3F)c12 (stereo not drawn) + CN(C)c1ccc(Nc2c3ccc(NC(=O)CCN4CCCC4)cc3nc3cc(NC(=O)CCN4CCCC4)ccc23)cc1 in this test? F

Moving on to CC(C)(O)C1CCC(Nc2ccc3ncc(-c4cccc(C(F)(F)F)c4)n3n2)CC1 (stereo not drawn) + Cc1cnc(CNC(=O)c2c(=O)c3ccc(N4CCCN(C)CC4)nc3n3c2sc2ccccc23)cn1 T

Moving on to COc1ncnc(C2CC2)c1-c1ncc2cnn(Cc3ccc(-c4nc(C(F)(F)F)cn4C(C)C)cc3)c2n1 + Cc1cnc(CNC(=O)c2c(=O)c3ccc(N4CCCN(C)CC4)nc3n3c2sc2ccccc23)cn1 T

====

System: IGROV1 complex spheroids (HUVEC, MSC), viability % test/control
EXPERIMENT NOTES: Anticancer human tumor IGROV1 cell line growth inhibition [GQUAD]; active means viability on the fitted dose curve at most 10% of control; inactive means the rest;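 also: spheroids exposed to compounds for 7 days before readout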
CONDITION DESCRIPTION: second compound 0.316 µM; first compound 1 µM
Outcome field: choose from Yes for active, No for inactive

Which outcome was entered for the molecule COc1cc(C2c3cc4c(cc3C(OC3OC5COC(C)OC5C(O)C3O)C3COC(=O)C23)OCO4)cc(OC)c1O (stereo not drawn) + Cc1[nH]c2ccc(F)cc2c1-c1nc2c3cccnc3c3ncccc3c2[nH]1 in this test? No

Moving on to C=CCn1c(=O)c2cnc(Nc3ccc(N4CCN(C)CC4)cc3)nc2n1-c1cccc(C(C)(C)O)n1 + Cc1[nH]c2ccc(F)cc2c1-c1nc2c3cccnc3c3ncccc3c2[nH]1 Yes

API: the following record is the query input.
Which outcome was entered for the molecule O=c1[nH]cc(F)c(=O)[nH]1 + CN(C)c1ccc(Nc2c3ccc(NC(=O)CCN4CCCC4)cc3nc3cc(NC(=O)CCN4CCCC4)ccc23)cc1 in this test? No

====

Test system: IGROV1 complex spheroids (HUVEC, MSC), viability % test/control
EXPERIMENT NOTES: Anticancer human tumor IGROV1 cell line growth inhibition [GQUAD];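 also: spheroids exposed to compounds for 7 days before readout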
CONDITION DESCRIPTION: curve of first compound; second compound 1 µM
Please go through the items and note down their IC50.

// known answers, use as guide
Please give the measured IC50 for this compound: COc1cccc2c1C(=O)c1c(O)c3c(c(O)c1C2=O)CC(O)(C(=O)CO)CC3OC1CC(N)C(O)C(C)O1 (stereo not drawn) + Cc1cnc(CNC(=O)c2c(=O)c3ccc(N4CCCN(C)CC4)nc3n3c2sc2ccccc23)cn1 < 31.6 nM

Moving on to Cc1cccc(N(C)C(=O)C2C(O)CCN2c2nc(C)cc(C(F)(F)F)c2C#N)c1 (stereo not drawn) + CN(C)c1ccc(Nc2c3ccc(NC(=O)CCN4CCCC4)cc3nc3cc(NC(=O)CCN4CCCC4)ccc23)cc1 > 10000 nM

Proceeding to the next compound to report its IC50.
Please give the measured IC50 for this compound: Cn1ncnc1[C@H]1c2n[nH]c(=O)c3cc(F)cc(c23)N[C@@H]1c1ccc(F)cc1 + Cc1cnc(CNC(=O)c2c(=O)c3ccc(N4CCCN(C)CC4)nc3n3c2sc2ccccc23)cn1 < 0.999 nM

====

Test system: IGROV1 complex spheroids (HUVEC, MSC), viability % test/control
EXPERIMENT NOTES: Anticancer human tumor IGROV1 cell line growth inhibition [GQUAD]; active means viability on the fitted dose curve at most 10% of control; inactive means the rest;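 also: spheroids exposed to compounds for 7 days before readout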
CONDITION DESCRIPTION: second compound 0.1 µM; first compound 0.316 µM
Outcome field: choose from label 1 (active), label 0 (inactive)

Which outcome was entered for the compound C=CCn1c(=O)c2cnc(Nc3ccc(N4CCN(C)CC4)cc3)nc2n1-c1cccc(C(C)(C)O)n1 + Cc1[nH]c2ccc(F)cc2c1-c1nc2c3cccnc3c3ncccc3c2[nH]1 in this test? label 0

Moving on to COc1ncnc(C2CC2)c1-c1ncc2cnn(Cc3ccc(-c4nc(C(F)(F)F)cn4C(C)C)cc3)c2n1 + Cc1cnc(CNC(=O)c2c(=O)c3ccc(N4CCCN(C)CC4)nc3n3c2sc2ccccc23)cn1 label 0

New cases:
Which outcome was entered for the compound CC1COCCN1c1cc(-c2ccnn2C)c2ccnc(-c3ccn[nH]3)c2n1 (stereo not given) + Cc1cnc(CNC(=O)c2c(=O)c3ccc(N4CCCN(C)CC4)nc3n3c2sc2ccccc23)cn1 in this test? label 1

Moving on to O=C(c1cc(Cc2n[nH]c(=O)c3ccccc23)ccc1F)N1CCN(C(=O)C2CC2)CC1 + Cc1[nH]c2ccc(F)cc2c1-c1nc2c3cccnc3c3ncccc3c2[nH]1 label 0

Moving on to CC(=O)O[C@H]1C(=O)[C@@]2(C)[C@H]([C@H](OC(=O)c3ccccc3)[C@]3(O)C[C@H](OC(=O)[C@H](O)[C@@H](NC(=O)c4ccccc4)c4ccccc4)C(C)=C1C3(C)C)[C@]1(OC(C)=O)CO[C@@H]1C[C@@H]2O + Cc1cnc(CNC(=O)c2c(=O)c3ccc(N4CCCN(C)CC4)nc3n3c2sc2ccccc23)cn1 label 1

====

Tested on: IGROV1 complex spheroids (HUVEC, MSC), viability % test/control
EXPERIMENT NOTES: Anticancer human tumor IGROV1 cell line growth inhibition [GQUAD];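 also: spheroids exposed to compounds for 7 days before readout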;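 as to viability, T/C: 100% = DMSO vehicle control viability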
CONDITION DESCRIPTION: second compound 10 µM; first compound 0.1 µM; stronger effect = lower value
Recorded viability, T/C split into classes one: < 6%; two: ≥ 6% and < 10%; three: ≥ 10%

These solved cases illustrate the format of a correct answer.
Given CC(=O)O[C@H]1C(=O)[C@@]2(C)[C@H]([C@H](OC(=O)c3ccccc3)[C@]3(O)C[C@H](OC(=O)[C@H](O)[C@@H](NC(=O)c4ccccc4)c4ccccc4)C(C)=C1C3(C)C)[C@]1(OC(C)=O)CO[C@@H]1C[C@@H]2O + Cc1[nH]c2ccc(F)cc2c1-c1nc2c3cccnc3c3ncccc3c2[nH]1 , name the class its viability, T/C places it in. one

Moving on to C=CCn1c(=O)c2cnc(Nc3ccc(N4CCN(C)CC4)cc3)nc2n1-c1cccc(C(C)(C)O)n1 + Cc1[nH]c2ccc(F)cc2c1-c1nc2c3cccnc3c3ncccc3c2[nH]1 one

Moving on to O=C(NO)c1cnc(N2CCN(S(=O)(=O)c3ccc4ccccc4c3)CC2)nc1 + Cc1cnc(CNC(=O)c2c(=O)c3ccc(N4CCCN(C)CC4)nc3n3c2sc2ccccc23)cn1 two

Moving on to CC(C)n1c(=O)n(C)c2cnc3cc(F)c(-c4ccc(OCCCN5CCCCC5)nc4)cc3c21 + CN(C)c1ccc(Nc2c3ccc(NC(=O)CCN4CCCC4)cc3nc3cc(NC(=O)CCN4CCCC4)ccc23)cc1 three

Moving on to CC(C)(O)C1CCC(Nc2ccc3ncc(-c4cccc(C(F)(F)F)c4)n3n2)CC1 (stereo not given) + CN(C)c1ccc(Nc2c3ccc(NC(=O)CCN4CCCC4)cc3nc3cc(NC(=O)CCN4CCCC4)ccc23)cc1 three

New cases:
Given CC1COCCN1c1cc(-c2ccnn2C)c2ccnc(-c3ccn[nH]3)c2n1 (stereo not given) + Cc1cnc(CNC(=O)c2c(=O)c3ccc(N4CCCN(C)CC4)nc3n3c2sc2ccccc23)cn1 , name the class its viability, T/C places it in. one

Moving on to Nc1ccn(C2OC(CO)C(O)C2(F)F)c(=O)n1 (stereo not given) + CN(C)c1ccc(Nc2c3ccc(NC(=O)CCN4CCCC4)cc3nc3cc(NC(=O)CCN4CCCC4)ccc23)cc1 one

Moving on to COc1ccc([C@@H](O)c2cc(-c3ncnc4cc(N5CCOCC5)ccc34)c(F)cc2Cl)nn1 + Cc1cnc(CNC(=O)c2c(=O)c3ccc(N4CCCN(C)CC4)nc3n3c2sc2ccccc23)cn1 two

Moving on to O=C(c1cc(Cc2n[nH]c(=O)c3ccccc23)ccc1F)N1CCN(C(=O)C2CC2)CC1 + CN(C)c1ccc(Nc2c3ccc(NC(=O)CCN4CCCC4)cc3nc3cc(NC(=O)CCN4CCCC4)ccc23)cc1 three
